Reported EPSA values follow for various molecules
Test: EPSA supercritical fluid chromatography polarity
Format: physicochemical
Settings: SFC, Chirex 3014
Method: EPSA was determined following the SFC protocol by Goetz and co-workers.[17] Briefly, a polar stationary phase (Chirex 3014) and a nonpolar mobile phase (supercritical CO2 with the addition of 20 mM ammonium formate in methanol as a modifier) were used to enable separation of compounds based on their polarity. The modifier was varied in 11 min from 5% to 60% at 5%/min in a linear gradient, holding at 60% for 4.9 min and reverting to the original 5% in 0.1 min. […]
measure_name: EPSA (A^2)

[[record]]
molecule = "CC(C)(C)NC(=O)[C@@H]1C[C@@H]2CCCC[C@@H]2CN1C[C@@H](O)[C@H](Cc1ccccc1)NC(=O)[C@H](CC(N)=O)NC(=O)c1ccc2ccccc2n1"
measure_name = "EPSA"
value = 94

[[record]]
molecule = "Nc1cccc2c1C(=O)N(C1CCC(=O)NC1=O)C2=O (stereo not drawn) [Pomalidomide]"
measure_name = "EPSA"
value = 82

[[record]]
molecule = "Cc1ncsc1-c1ccc(CNC(=O)[C@@H]2C[C@H](O)CN2C(=O)[C@@H](NC(=O)COCCOCCOCCOCCOCCOCC(=O)N[C@H](C(=O)N2C[C@@H](O)C[C@H]2C(=O)NCc2ccc(-c3scnc3C)cc2)C(C)(C)C)C(C)(C)C)cc1"
measure_name = "EPSA"
value = 104

